Collected IC50 values appear next to each entry.
target.of.assay: human GlyT1b (Homo sapiens, UniProt P48067)
Construct: expressed in transfected cells
Sequence (P48067 1-652 isoform P48067-3): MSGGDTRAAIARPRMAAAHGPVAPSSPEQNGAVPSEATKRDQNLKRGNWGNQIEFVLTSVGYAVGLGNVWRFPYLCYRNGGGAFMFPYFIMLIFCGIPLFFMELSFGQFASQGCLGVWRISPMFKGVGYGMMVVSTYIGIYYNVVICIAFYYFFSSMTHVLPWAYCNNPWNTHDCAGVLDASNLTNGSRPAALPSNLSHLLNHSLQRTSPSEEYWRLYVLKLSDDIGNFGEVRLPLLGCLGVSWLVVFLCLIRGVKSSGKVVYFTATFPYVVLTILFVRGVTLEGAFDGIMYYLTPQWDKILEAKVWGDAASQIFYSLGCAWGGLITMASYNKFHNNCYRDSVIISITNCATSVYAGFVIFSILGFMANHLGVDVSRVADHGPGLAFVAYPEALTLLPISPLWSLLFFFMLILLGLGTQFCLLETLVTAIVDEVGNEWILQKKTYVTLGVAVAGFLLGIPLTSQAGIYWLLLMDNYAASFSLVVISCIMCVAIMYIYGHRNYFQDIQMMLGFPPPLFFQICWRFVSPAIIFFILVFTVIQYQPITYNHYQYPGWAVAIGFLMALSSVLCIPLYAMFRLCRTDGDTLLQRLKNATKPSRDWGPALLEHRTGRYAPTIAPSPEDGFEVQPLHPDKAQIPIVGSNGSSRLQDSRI
method.description: [3H] Glycine Uptake Assay (SPA) in recombinant hGlyT1b-CHO cells
Format: cell-based
experimental.parameters: Table 2, unit from table title
I only need the number, in nM, no unit after it.

Worked set:
molecule	result.type	measured.result
Cc1cccc(C)c1C(=O)NC(c1cccnc1)C12CCC(CC1)N2C (stereo not drawn) [Example 65]	IC50	31
CC(=O)NCCN1C2CCC1([C@H](NC(=O)c1c(C)cccc1C)c1ccccc1)CC2	IC50	6
CCCOC(=O)c1ccc(C(NC(=O)c2c(C)cccc2C)C23CCC(CC2)N3C)cc1 (stereo not drawn)	IC50	39
Cc1cccc(C)c1C(=O)N[C@H](c1ccccc1)C12CCC(CC1)N2CC1CCC1	IC50	9
CCN1C2CCC1(C(NC(=O)c1ccnc(C(F)(F)F)c1F)c1ccccc1)CC2 (stereo not drawn)	IC50	297
Cc1cc(F)ccc1C(=O)NC(c1ccccc1)C12CCC(CC1)N2C (single isomer, unassigned)	IC50	48
Cc1cccc(C)c1C(=O)NC(c1ccc(O)cc1)C12CCC(CC1)N2C (stereo not drawn)	IC50	6
CSc1ncccc1C(=O)NC(c1ccccc1)C12CCC(CC1)N2C1CCC1 (stereo not drawn)	IC50	243

Identify measured IC50 associated with `Cc1cccc(C)c1C(=O)N[C@H](c1ccccc1)C12CCC(CC1)N2Cc1ccccn1`
155

Identify measured IC50 associated with Cc1cccc(C)c1C(=O)NC(c1cccc(C(=O)N(C)C)c1)C12CCC(CC1)N2C (stereo not drawn)
57

Identify measured IC50 associated with Cc1cccc(Cl)c1C(=O)NC(c1ccccc1)C12CCC(CC1)N2C (stereo not drawn)
6

Identify measured IC50 associated with `Cc1cccc(C)c1C(=O)N[C@H](c1ccccc1)C12CCC(CC1)N2C[C@H]1CCCN1`
313

Identify measured IC50 associated with CN1C2CCC1(C(NC(=O)c1cccc(C(F)(F)F)c1Cl)c1ccccc1)CC2 (stereo not drawn)
26
